Hey, just so you know, these numbers are from patent US20180334496A1.

test.target: T1, human Complement Factor D (CFD), purified from human serum (human, UniProt P00746 26-253)
T1 construct: serum purified (CompTech A136); also called serum purified CFD; hCFD-Comptech
T1 sequence (P00746 26-253): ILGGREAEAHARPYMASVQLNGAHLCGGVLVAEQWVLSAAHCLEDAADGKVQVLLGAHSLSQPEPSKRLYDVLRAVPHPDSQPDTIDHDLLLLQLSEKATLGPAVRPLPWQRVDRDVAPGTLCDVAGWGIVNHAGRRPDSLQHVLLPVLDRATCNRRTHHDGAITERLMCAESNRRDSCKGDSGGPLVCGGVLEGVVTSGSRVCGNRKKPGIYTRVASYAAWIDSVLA
procedure.details: SPR MX96, mAbs amine-coupled, CFD injected
result.type: Kd
Give the figure together with its unit, number first.

binder	Kd
KCD036 (antibody, V domains shown) VH: EVQLQQSGPELVKPGASMKISCKASGYSFTGYTMTWVKQSHGKNLEWIGLINPYNGGTNYNQKFKGKATFTVDKSSSTAYMELLSLTSEDSAVYYCARRHYGSSWDYWGQGTTLTVSS VL: DIKLTQSPSSMYASLGERVTITCKASQDINTYLSWFQQKPGKSPKTLIYRANRLVDGVPSRFSGSGSGQDYSLTISSLEYEEMGIYYCLQYDEFPYTFGGGTKLEIK	25.5 nM

Here's the next entry for you.
Return reported Kd; argument: KCD210 (antibody, V domains shown) VH: EVQLQQSGPVLVKPGASVTMSCKASGYTFTEYYMNWVKQSHGKSLDWIGVINPYSGGTSYKQKFKDKATLTVDKSSSTAYMELNGLTSEDSAVYFCVRGGLRRNYFDYWGQGTTLTVSS VL: EIVLTQSPALMTASPGEKVTITCSVSSSISSTNLHWYQQKSGTSPKPWIFGTSNLASGVPVRFSGSGSGTSYSLTISNMEAEDAATYYCQQWNSYPFTFGTGTKLEIK
3.52 nM
